protein stability index reference
B1: FAM46D (parent)
chain: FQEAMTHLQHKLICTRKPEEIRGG

Variants of: B1
Protocol: protein stability index of a GFP-peptide fusion (GPS, HEK-293T) (PSI 1-6); higher = more stable;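 note: lentivirally expressed fusions sorted by FACS into six bins by GFP to DsRed ratio, PSI derived from sequencing read proportions per bin multiplied by bin number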
Conditions used: c terminus: a fixed tail appended
Property name: protein stability index

>>> reported_result("K17R")
2.02
>>> reported_result("I13N")
3.33
>>> reported_result("P18R")
2.09
>>> reported_result("F1W")
3.28
>>> reported_result("R22C")
2.41
>>> reported_result("L8P")
2.99
>>> reported_result("E19L")
2.26
>>> reported_result("F1H")
4.3
>>> reported_result("I13C")
3.07
>>> reported_result("G24T")
2.96
>>> reported_result("M5S")
3.67
